The measured values listed here are drawn from patent US9012443B2.

target: Nav 1.7 (Homo sapiens (Human), UniProt Q15858); experiment: Nav 1.7 in vitro PX assay (PatchXpress whole cell voltage clamp); assay type: cell-based; settings: 293 cells, human Nav1.7, partially inactivated state; read-out: Nav1.7 PX IC50 IP
Sequence (Q15858 whole entry): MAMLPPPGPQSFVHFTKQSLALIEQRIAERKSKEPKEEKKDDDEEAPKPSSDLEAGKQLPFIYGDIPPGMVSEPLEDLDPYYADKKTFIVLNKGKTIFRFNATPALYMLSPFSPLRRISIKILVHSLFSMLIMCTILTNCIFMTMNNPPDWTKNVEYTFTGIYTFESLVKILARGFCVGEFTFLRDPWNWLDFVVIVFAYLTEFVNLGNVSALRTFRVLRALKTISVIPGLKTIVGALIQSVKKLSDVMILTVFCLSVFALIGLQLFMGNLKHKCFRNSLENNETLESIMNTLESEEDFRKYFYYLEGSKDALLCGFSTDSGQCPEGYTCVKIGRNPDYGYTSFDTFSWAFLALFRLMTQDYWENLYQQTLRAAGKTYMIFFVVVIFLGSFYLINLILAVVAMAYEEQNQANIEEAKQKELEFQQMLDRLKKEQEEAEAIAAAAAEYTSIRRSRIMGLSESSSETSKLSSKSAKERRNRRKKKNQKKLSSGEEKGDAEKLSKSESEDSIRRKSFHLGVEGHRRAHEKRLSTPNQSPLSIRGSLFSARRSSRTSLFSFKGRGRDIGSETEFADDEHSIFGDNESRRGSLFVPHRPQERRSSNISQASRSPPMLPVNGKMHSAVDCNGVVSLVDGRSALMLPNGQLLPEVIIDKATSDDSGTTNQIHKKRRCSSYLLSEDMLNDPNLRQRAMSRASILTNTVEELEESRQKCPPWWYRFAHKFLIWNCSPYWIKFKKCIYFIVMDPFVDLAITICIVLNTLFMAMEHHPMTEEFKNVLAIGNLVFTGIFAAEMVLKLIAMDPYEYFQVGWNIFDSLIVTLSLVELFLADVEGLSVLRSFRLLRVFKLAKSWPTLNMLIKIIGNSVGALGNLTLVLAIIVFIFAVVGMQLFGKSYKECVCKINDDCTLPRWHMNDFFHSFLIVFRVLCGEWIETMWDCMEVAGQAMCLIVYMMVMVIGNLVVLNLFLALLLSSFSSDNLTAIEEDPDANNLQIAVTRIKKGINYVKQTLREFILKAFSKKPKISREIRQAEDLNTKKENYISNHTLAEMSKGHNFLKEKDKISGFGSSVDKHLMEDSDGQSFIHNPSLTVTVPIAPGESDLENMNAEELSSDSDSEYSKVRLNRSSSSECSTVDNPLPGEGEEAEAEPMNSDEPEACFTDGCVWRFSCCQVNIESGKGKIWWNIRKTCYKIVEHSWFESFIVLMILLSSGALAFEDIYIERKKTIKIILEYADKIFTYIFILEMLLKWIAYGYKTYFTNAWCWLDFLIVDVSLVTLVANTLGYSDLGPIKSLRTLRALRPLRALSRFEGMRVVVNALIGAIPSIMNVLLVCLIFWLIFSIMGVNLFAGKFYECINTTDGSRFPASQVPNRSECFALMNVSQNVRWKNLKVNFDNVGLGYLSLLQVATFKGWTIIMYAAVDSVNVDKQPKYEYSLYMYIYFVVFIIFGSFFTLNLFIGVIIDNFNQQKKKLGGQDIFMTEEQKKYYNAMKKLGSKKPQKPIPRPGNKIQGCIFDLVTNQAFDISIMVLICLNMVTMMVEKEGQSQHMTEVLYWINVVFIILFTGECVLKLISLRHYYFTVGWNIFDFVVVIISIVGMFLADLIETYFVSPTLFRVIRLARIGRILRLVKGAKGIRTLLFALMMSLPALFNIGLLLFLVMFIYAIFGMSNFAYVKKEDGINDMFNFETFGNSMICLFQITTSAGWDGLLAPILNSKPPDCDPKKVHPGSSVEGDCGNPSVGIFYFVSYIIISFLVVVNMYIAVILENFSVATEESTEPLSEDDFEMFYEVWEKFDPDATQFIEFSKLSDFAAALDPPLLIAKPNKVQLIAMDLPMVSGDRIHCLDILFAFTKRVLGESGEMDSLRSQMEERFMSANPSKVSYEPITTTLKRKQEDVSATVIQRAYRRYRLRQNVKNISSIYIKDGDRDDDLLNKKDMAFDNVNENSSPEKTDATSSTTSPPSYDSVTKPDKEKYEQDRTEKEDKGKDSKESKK
Value type: IC50 (nM)

(A) COc1ccc(Cl)cc1-c1n[nH]c(=O)c2cc(S(=O)(=O)Nc3ncns3)ccc12
(B) O=S(=O)(Nc1ccncn1)c1ccc2c(OCc3ncoc3-c3ccccc3)nccc2c1
(C) O=S(=O)(Nc1nccs1)c1ccc2c(C3CCCN3Cc3ccccc3)cccc2c1 (stereo not shown)
(D) COc1cc(-c2ccc3[nH]ccc3c2)ccc1-c1nccc2cc(S(=O)(=O)Nc3ccncn3)ccc12
Rank order required: IC50, descending. Provide the labels, sequenced as the question asks.
C, B, D, A

(P) COc1cc(C(F)(F)F)ccc1-c1c(C#N)cnc2cc(S(=O)(=O)Nc3nccs3)ccc12
(Q) COc1ccccc1-c1ncc(O)c2cc(S(=O)(=O)Nc3nccs3)ccc12 [Example 234, 2,2,2-TRIFLUOROACETATE]
Identify the entry with the smaller IC50: P or Q . # reply format: chosen label
P

(P) COc1cc(Cl)ccc1-c1ccc(-c2nccc3cc(S(=O)(=O)Nc4ccncn4)ccc23)c(OC)c1
(Q) COc1cc(C(F)(F)F)ccc1-c1nccc2cc(S(=O)(=O)Nc3ncc(F)cn3)ccc12
When P and Q are compared, which has the higher number for IC50? Selection: enter the item's label.
Q

* * *

target: Nav 1.7 (Homo sapiens (Human)); assay: Nav 1.7 in vitro PX assay (PatchXpress whole cell voltage clamp); format: cell-based; conditions: 293 cells, human Nav1.7, partially inactivated state; read-out: Nav1.7 PX IC50 IP
Value type: IC50 (µM)

(A) COc1cc(OCC(F)(F)F)ccc1-c1nccc2cc(S(=O)(=O)Nc3ccncn3)ccc12 [Example 362]
(B) NC(=O)c1cc(C(F)(F)F)ccc1-c1nccc2cc(S(=O)(=O)Nc3nccs3)ccc12 [Example 227]
(C) COc1cc(C(F)F)c(Cl)cc1-c1ncnc2cc(S(=O)(=O)Nc3nccs3)ccc12 [Example 270]
(D) COc1cc(F)ccc1-c1ncnc2cc(S(=O)(=O)Nc3nccs3)ccc12 [Example 271]
For the compounds shown above, give the order from largest IC50 to smallest. Field: ranking. Enter the labels in the order requested.
B, A, D, C

(a) COc1cc(C(F)(F)F)ccc1-c1nccc2cc(S(=O)(=O)Nc3nc(C#N)cs3)ccc12 [Example 421]
(b) O=S(=O)(Nc1nccs1)c1ccc2c(-c3ccc(C(F)(F)F)cc3F)nccc2c1 [Example 228]
In terms of reported IC50, does a or b have the smaller number? Pick one; state its label.
a
(a: 0.786 µM, b: 1.52 µM)

(a) COc1ccc(-c2cccc(F)c2)cc1-c1nccc2cc(S(=O)(=O)Nc3nncs3)ccc12 [Example 345]
(b) COc1cc(-c2cccc(F)c2)c(Cl)cc1-c1nccc2cc(S(=O)(=O)Nc3ccon3)ccc12 [Example 335]
When the recorded IC50 values are compared, which is smaller: that of a or that of b ? Refer to your chosen item by its label in the answer.
b

(P) COc1cc(Cl)ccc1-c1ccnc2cc(S(=O)(=O)Nc3nccs3)ccc12 [Example 275]
(Q) COc1ccccc1-c1n[nH]c(=O)c2cc(S(=O)(=O)Nc3ncns3)ccc12 [Example 508]
(R) COc1cc(-c2cncc(F)c2)ccc1-c1nccc2cc(S(=O)(=O)Nc3ccncn3)ccc12 [Example 475]
(S) COc1cc(C(F)(F)F)ccc1-c1n[nH]c(=O)c2cc(S(=O)(=O)Nc3ccncn3)ccc12 [Example 506]
Arrange the 4 compounds by rising IC50, starting with the smallest. Answer format: list of labels, ordered as asked.
P, Q, R, S
(P: 0.42 µM, Q: 1.3 µM, R: 1.88 µM, S: 3 µM)

(1) COc1cc(-c2cccc(F)c2F)ccc1-c1nccc2cc(S(=O)(=O)Nc3ccncn3)ccc12 [Example 444]
(2) N#CCOc1cc(F)ccc1-c1nccc2cc(S(=O)(=O)Nc3nccs3)ccc12 [Example 192]
In the pair 1 and 2 , the larger recorded IC50 belongs to which? Answer by stating the label of the chosen item.
2
